# target.under.test: Apoptosis regulator Bcl-2 (Homo sapiens, UniProt P10415)
# Sequence (P10415 whole entry): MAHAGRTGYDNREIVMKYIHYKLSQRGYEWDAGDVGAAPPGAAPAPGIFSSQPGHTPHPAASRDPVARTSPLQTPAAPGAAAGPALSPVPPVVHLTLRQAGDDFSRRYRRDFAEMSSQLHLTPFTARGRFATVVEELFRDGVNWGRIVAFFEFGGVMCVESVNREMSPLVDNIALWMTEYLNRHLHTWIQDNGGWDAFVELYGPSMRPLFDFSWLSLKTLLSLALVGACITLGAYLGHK
# assay.remarks: Binding affinity to human recombinant Bcl-2 expressed in Escherichia coli by Surface plasmon resonance assay
pKd: −log10 of the molar value.
observed.property: pKd

>>> print(df.to_string())
                                   molecule  reported
0  C/C(=C\c1csc(C)n1)[C@@H]1C[C@@H]2O[C@]2(C)CCC[C@H](C)[C@H](O)[C@@H](C)C(=O)C(C)(C)[C@@H](O)CC(=O)N1 [IXABEPILONE]      6.47
